assay.target: PCSK9 (Homo sapiens, UniProt Q8NBP7)
Sequence (Q8NBP7 153-692): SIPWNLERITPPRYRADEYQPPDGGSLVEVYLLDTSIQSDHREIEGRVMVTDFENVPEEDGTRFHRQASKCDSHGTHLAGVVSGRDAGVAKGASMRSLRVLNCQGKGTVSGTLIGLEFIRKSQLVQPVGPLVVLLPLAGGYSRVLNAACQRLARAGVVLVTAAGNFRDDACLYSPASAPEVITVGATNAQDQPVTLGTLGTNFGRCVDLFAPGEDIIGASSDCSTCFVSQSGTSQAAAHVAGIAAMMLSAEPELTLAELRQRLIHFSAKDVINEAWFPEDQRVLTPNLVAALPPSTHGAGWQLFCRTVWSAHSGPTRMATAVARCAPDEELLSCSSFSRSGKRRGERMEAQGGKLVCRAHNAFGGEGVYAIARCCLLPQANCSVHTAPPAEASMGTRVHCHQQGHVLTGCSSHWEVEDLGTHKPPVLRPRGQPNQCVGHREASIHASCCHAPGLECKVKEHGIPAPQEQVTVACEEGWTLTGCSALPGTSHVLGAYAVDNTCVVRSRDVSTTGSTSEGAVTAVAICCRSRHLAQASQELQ
experiment.notes: PCSK9 Alexa FRET Standard assay (displacement of AlexaFluor647 tagged cyclic peptide Reagent A)
Format: binding
condition.summary: 0.5 nM PCSK9, 20 nM AF cyclic peptide Reagent A
Numbered stars: 1 amine (or outer) side, 2 acyl side, 3 side chain; on linkers, the order of the positions; unused ones are H or OH. Bridge positions count the residues as written; N and C are the ends. Square brackets hold non-standard residues; d marks the D form. Peptide text beside a SMILES is read from it. Trp(7-aza) = N[C@@H](Cc1c[nH]c2ncccc12)C(=O)O; NMePhe(4-F) = CN[C@@H](Cc1ccc(F)cc1)C(=O)O; mXylylene = c1cc(C[*:1])cc(C[*:2])c1; Tle = CC(C)(C)[C@H](N)C(=O)O; Nva = CCC[C@H](N)C(=O)O; Mpa = O=C(O)CCS
experimental.endpoint: IC50

In plain terms, CCC[C@@H]1NC(=O)[C@H](Cc2c[nH]c3ncccc23)NC(=O)[C@H]([C@@H](C)O)NC(=O)[C@H](Cc2c[nH]cn2)NC(=O)[C@H](Cc2ccc(O)cc2)NC(=O)[C@H](C(C)(C)C)NC(=O)CCSCc2cccc(c2)CSC[C@@H](C(N)=O)NC(=O)[C@H]([C@@H](C)O)NC(=O)[C@H](CCC)NC(=O)[C@H](Cc2ccc(F)cc2)N(C)C(=O)[C@H](CCC(=O)O)NC1=O [Compound 267] ([Mpa][Tle]YHT[Trp(7-aza)][Nva]E[NMePhe(4-F)][Nva]TC-NH2; linker 1-12 via mXylylene) has a documented IC50 of 50 to 100 µM

These entries and their values trace back to patent US11814444B2.
